- assayedTarget: human recombinant HDAC6 (Homo sapiens, UniProt Q9UBN7)
- Sequence (Q9UBN7 1-1215): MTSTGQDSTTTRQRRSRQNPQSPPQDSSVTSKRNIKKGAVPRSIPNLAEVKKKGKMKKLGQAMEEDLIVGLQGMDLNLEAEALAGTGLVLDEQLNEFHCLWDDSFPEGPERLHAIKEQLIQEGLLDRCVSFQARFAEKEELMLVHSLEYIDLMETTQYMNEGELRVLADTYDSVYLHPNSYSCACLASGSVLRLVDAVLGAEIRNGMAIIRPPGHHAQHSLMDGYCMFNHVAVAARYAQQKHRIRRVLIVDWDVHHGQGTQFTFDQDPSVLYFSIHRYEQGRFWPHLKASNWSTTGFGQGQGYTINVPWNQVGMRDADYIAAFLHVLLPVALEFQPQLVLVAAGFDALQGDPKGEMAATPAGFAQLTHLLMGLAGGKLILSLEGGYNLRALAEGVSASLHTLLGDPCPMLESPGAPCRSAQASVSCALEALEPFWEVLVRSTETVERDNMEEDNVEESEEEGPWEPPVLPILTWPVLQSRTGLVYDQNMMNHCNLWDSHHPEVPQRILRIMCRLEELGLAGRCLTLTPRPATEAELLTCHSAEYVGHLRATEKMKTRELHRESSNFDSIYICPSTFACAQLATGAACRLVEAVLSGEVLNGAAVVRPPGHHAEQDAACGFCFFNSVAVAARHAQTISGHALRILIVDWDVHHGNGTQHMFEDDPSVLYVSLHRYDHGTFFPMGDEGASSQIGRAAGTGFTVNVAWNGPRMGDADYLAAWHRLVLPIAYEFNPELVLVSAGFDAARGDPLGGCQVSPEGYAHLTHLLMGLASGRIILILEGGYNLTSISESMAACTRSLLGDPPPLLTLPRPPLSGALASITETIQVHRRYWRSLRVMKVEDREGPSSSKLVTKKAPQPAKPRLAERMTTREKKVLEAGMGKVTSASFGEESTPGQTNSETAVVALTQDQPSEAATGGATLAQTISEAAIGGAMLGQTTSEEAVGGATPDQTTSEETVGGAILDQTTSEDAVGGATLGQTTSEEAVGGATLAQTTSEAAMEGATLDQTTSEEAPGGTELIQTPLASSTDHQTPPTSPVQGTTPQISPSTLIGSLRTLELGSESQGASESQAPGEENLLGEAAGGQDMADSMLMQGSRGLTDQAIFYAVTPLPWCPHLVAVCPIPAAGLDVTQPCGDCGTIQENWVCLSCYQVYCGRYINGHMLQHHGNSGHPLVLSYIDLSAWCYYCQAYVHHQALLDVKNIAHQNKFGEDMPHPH
- experimentalProtocol: HDAC6 enzyme activity inhibition assay (HDAC Fluorimetric Drug Discovery Kit)
- settings: same protocol as the HDAC1 enzyme activity test
pIC50: −log10 of the molar value.
The threshold is inclusive: pIC50 of exactly 7 counts as satisfied; values below receive not satisfied.

[
  {
    "compound": "CCN1CC(N2CCC(S(=O)(=O)N(Cc3ccc(-c4nnc(C(F)F)o4)cc3)c3cccc(Cl)c3)CC2)C1 [Compound 11777]",
    "assignedLabel": "satisfied"
  },
  {
    "compound": "O=S(=O)(C1CCOC1)N(Cc1ccc(-c2nnc(C(F)F)o2)cn1)c1ccccc1 (centres unmarked) [Compound 11428]",
    "assignedLabel": "satisfied"
  },
  {
    "compound": "O=S(=O)(C1CCN(C2COC2)CC1)N(Cc1ccc(-c2nnc(C(F)F)o2)cc1)c1ccccc1 [Compound 11680]",
    "assignedLabel": "satisfied"
  },
  {
    "compound": "CS(=O)(=O)N(Cc1ccc(-c2nnc(C(F)F)o2)cc1F)C1CCCCC1 [Compound 11292]",
    "assignedLabel": "satisfied"
  },
  {
    "compound": "CC(C)N1CC(N2CCC(S(=O)(=O)N(Cc3ccc(-c4nnc(C(F)F)o4)cc3)c3cccc(Cl)c3)CC2)C1 [Compound 11778]",
    "assignedLabel": "satisfied"
  },
  {
    "compound": "CS(=O)(=O)N(Cc1ccc(-c2nnc(C(F)(F)F)o2)cc1F)c1ccc2c(c1)OCO2 [Compound 11226]",
    "assignedLabel": "satisfied"
  },
  {
    "compound": "CS(=O)(=O)N(Cc1ccc(-c2nnc(C(F)F)o2)cn1)c1cccc(C(F)(F)F)c1 [Compound 11324]",
    "assignedLabel": "satisfied"
  },
  {
    "compound": "Cc1cccc(N(Cc2ccc(-c3nnc(C(F)F)o3)cn2)S(=O)(=O)C2CCN(C3CN(C(C)C)C3)CC2)c1 [Compound 11837]",
    "assignedLabel": "satisfied"
  },
  {
    "compound": "CS(=O)(=O)N(Cc1ccc(-c2nnc(C(F)F)o2)cc1F)c1cccnc1 [Compound 11120]",
    "assignedLabel": "satisfied"
  },
  {
    "compound": "O=S(=O)(CCCN1CCC(F)(F)C1)N(Cc1ccc(-c2nnc(C(F)F)o2)cc1)c1ccccc1 [Compound 11706]",
    "assignedLabel": "not satisfied"
  },
  {
    "compound": "Cc1cccc(N(Cc2ccc(-c3nnc(C(F)(F)F)o3)cc2F)S(C)(=O)=O)c1 [Compound 11177]",
    "assignedLabel": "satisfied"
  },
  {
    "compound": "CCS(=O)(=O)N(Cc1ccc(-c2nnc(C(F)F)o2)cc1F)c1ccc2cnn(C)c2c1 [Compound 11521]",
    "assignedLabel": "satisfied"
  },
  {
    "compound": "O=C(C1CC1)N1CC(N2CCC(S(=O)(=O)N(Cc3ccc(-c4nnc(C(F)F)o4)cn3)c3cccc(Cl)c3)CC2)C1 [Compound 11784]",
    "assignedLabel": "satisfied"
  },
  {
    "compound": "O=S(=O)(CCCN1CCCC1)N(Cc1ccc(-c2nnc(C(F)F)o2)cc1)c1ccc(F)c(Cl)c1 [Compound 11722]",
    "assignedLabel": "satisfied"
  },
  {
    "compound": "O=S(=O)(C1CCN(C2CC(O)C2)CC1)N(Cc1ccc(-c2nnc(C(F)F)o2)cc1)c1cccc(Cl)c1 (centres unmarked) [Compound 11793]",
    "assignedLabel": "satisfied"
  },
  {
    "compound": "CCCCN(Cc1ccc(-c2nnc(C(F)(F)F)o2)cc1)S(C)(=O)=O [Compound 11222]",
    "assignedLabel": "not satisfied"
  },
  {
    "compound": "CS(=O)(=O)N(Cc1ccc(-c2nnc(C(F)F)o2)cc1F)c1cccc(F)c1 [Compound 11182]",
    "assignedLabel": "satisfied"
  },
  {
    "compound": "Cc1cccc(N(Cc2ccc(-c3nnc(C(F)F)o3)cc2)S(=O)(=O)C2CCN(C3CC4CCC3C4)CC2)c1 (centres unmarked) [Compound 11693]",
    "assignedLabel": "not satisfied"
  },
  {
    "compound": "Cc1cccc(N(Cc2ccc(-c3nnc(C(F)F)o3)cn2)S(=O)(=O)C2CCN([C@H]3CC[C@H](F)CC3)CC2)c1 [Compound 11688]",
    "assignedLabel": "satisfied"
  },
  {
    "compound": "O=S(=O)(CCN1CCCC1)N(Cc1ccc(-c2nnc(C(F)F)o2)cc1F)c1ccc(F)c(Cl)c1 [Compound 11514]",
    "assignedLabel": "satisfied"
  },
  {
    "compound": "CS(=O)(=O)N(Cc1ccc(-c2nnc(C(F)F)o2)cc1)c1ccc2c(c1)CN(C1COC1)C2 [Compound 11731]",
    "assignedLabel": "not satisfied"
  },
  {
    "compound": "O=S(=O)(CCN1CC=C(c2ccc(Cl)cc2)CC1)N(Cc1ccc(-c2nnc(C(F)F)o2)cc1)c1ccccc1 [Compound 11842]",
    "assignedLabel": "not satisfied"
  }
]
